Inhibition of binding (%) overview
- experimental-system: T1, human TSH receptor (full length), coated on tubes (human, UniProt P16473 22-764)
- T1 construct: TSHR coated tubes as described in WO2004/050708A2; The receptor is full length and held on plastic tubes through a mouse MAb to the TSHR; also called thyroid stimulating hormone receptor
- protocol-summary: inhibition of 125I-K1-70 Fab (competitor) binding to TSHR coated tubes; 0.001 µg/mL in HBD serum pool

>  <binder>
K1-70 IgG (antibody, V domains shown, Human IgG1 lambda purified from hetero-hybridoma supernatant; also called human monoclonal autoantibody to the TSHR with TSH antagonist activity) VH: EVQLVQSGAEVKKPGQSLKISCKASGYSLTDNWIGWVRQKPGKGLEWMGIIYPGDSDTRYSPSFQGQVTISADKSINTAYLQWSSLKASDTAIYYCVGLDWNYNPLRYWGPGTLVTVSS VL: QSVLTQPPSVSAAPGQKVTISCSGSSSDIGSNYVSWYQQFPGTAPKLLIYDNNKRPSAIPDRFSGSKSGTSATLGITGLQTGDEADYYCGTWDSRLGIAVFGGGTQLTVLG

>  <measurement-units>
%

>  <Inhibition of binding (%)>
-8.8

$$$$
>  <binder>
K1-70 Fab (Fab, V domains shown) VH: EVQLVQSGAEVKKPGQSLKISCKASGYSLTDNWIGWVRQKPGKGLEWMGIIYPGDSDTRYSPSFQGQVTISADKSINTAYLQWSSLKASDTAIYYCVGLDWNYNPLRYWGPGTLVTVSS VL: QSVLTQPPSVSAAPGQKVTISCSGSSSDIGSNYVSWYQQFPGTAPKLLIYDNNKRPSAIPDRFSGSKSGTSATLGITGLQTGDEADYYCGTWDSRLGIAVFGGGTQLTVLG

>  <measurement-units>
%

>  <Inhibition of binding (%)>
-2.5

$$$$
>  <binder>
K1-18 Fab (Fab, V domains shown) VH: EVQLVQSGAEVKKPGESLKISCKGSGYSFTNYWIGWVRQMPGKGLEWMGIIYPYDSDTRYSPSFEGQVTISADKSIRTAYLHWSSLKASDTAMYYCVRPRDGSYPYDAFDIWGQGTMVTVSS VL: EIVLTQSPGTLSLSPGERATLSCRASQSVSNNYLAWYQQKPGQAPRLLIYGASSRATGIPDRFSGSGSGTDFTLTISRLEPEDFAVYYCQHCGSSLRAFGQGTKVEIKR

>  <measurement-units>
%

>  <Inhibition of binding (%)>
-8.2

$$$$
>  <binder>
K1-18 IgG (antibody, V domains shown, Human IgG1 kappa purified from hetero-hybridoma supernatant; also called human monoclonal autoantibody to the TSHR with TSH agonist activity) VH: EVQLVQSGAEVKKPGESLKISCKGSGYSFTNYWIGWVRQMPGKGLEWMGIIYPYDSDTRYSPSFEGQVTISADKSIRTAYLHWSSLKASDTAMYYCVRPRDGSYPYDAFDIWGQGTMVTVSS VL: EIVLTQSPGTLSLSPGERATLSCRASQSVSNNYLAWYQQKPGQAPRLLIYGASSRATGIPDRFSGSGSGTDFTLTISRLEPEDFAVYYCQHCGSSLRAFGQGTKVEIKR

>  <measurement-units>
%

>  <Inhibition of binding (%)>
-6.8

$$$$
